These measurements were taken from the supplement of paper PMC10567573.

B1: STK38L (parent)
chain: FLPGGDMMTLLMKKDTLTEEETQF

Variants of: B1
protocol.text: protein stability index of a GFP-peptide fusion (GPS, HEK-293T) (PSI 1-6); higher = more stable;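 further: lentivirally expressed fusions sorted by FACS into six bins by GFP to DsRed ratio, PSI derived from sequencing read proportions per bin multiplied by bin number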
test.context: c terminus: a fixed tail appended
Entries and their protein stability index values follow.

{"variant.label": "M8R", "protein stability index": 3.36}
{"variant.label": "M7K", "protein stability index": 3.55}
{"variant.label": "G5P", "protein stability index": 2.94}
{"variant.label": "M12K", "protein stability index": 3.69}
{"variant.label": "G5E", "protein stability index": 3.72}
